Entry source: patent US20220144842A1

// each record: one item and its pIC50 for full length human IRAK4 protein (Homo sapiens)
pIC50: −log10 of the molar value.
Property name: pIC50

Cc1cc(Nc2nc(N[C@H]3CC[C@H](N4CCOCC4)CC3)c3cn[nH]c3n2)sn1
7.92

(1) c1cncc(-c2n[nH]c3nc(Nc4cnn(C5CCOCC5)c4)nc(N[C@H]4CC[C@H](N5CCOCC5)CC4)c23)c1
(2) c1ccc(-c2n[nH]c3nc(Nc4cnn(C5CCOCC5)c4)nc(N[C@H]4CC[C@H](N5CCOCC5)CC4)c23)cc1
(3) Brc1n[nH]c2nc(Nc3cnn(C4CCOCC4)c3)nc(N[C@H]3CC[C@H](N4CCOCC4)CC3)c12
Order the records by pIC50, with each subsequent value no larger than the one before. A complete answer lists every label in the requested sequence.
3, 1, 2
(3: 8.38, 1: 8.09, 2: 7.80)
